- Test system: CEM cells HIV-1 protection, formazan growth assay
- protocol.notes: NCI AIDS Antiviral Assay;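 active = compounds giving half or more protection of infected cells from virus-caused growth loss, again on retest; inactive = the rest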
- Method: The ability of compounds to protect human CEM cells from HIV-1 infection is measured as a screen for new compounds capable of inhibiting the HIV virus. Five concentrations of drug were tested on uninfected and infected cells and cell growth was measured using a soluble formazan assay. […] Compounds that provided at least 50% protection were retested. Compounds that provided at least 50% protection on retest were listed as moderately active. […]
Possible outcomes: true for active, false for inactive

• COC(=O)c1ccccc1C1CN=NC12Cc1ccc3ccccc3c1C2=O (centres undefined) = false
• Cc1ccc(S(=O)(=O)C2c3nc4ccccc4cc3-c3nc4ccccc4nc32)cc1 (centres undefined) = false
• CC(C)N(C(=O)C12C3(C(=O)C(C)(C)C)C4C5(C#N)C3C1(C(=O)C(C)(C)C)C5C42C(=O)C(C)(C)C)C(C)C (centres undefined) = false
• CCCCCCCCCCCCCCCCCCCCCCNc1ccn(C2CC(OP(=O)(O)OCC3OC(n4cc(C)c(=O)[nH]c4=O)CC3N=[N+]=[N-])C(COP(=O)(O)OCC3CCC(n4ccc(N)nc4=O)O3)O2)c(=O)n1 (centres undefined) = true
• COc1cc(N=Nc2ccc(N=Nc3cc(NC(C)=O)c(N=Nc4ccc(S(=O)(=O)O)cc4)cc3S(=O)(=O)O)c(C)c2)c(C)cc1NC(=O)c1ccc(N)cc1 = true
• O=C(/C=C/c1ccc[nH]1)c1ccccc1 = false
• CC(CCc1nc2ccccc2o1)C1CCC2C3CC[C@@H]4C[C@H](O)CC[C@]4(C)C3C[C@H](O)[C@]12C (some centres undefined) = false
• COc1cc(OC)c2ssc3c(OC)cc(OC)c4ssc1c2-c43 = false
• c1ccc(CN2COc3c(c4c(c5ccccc35)OCN(Cc3ccccc3)C4)C2)cc1 = false
• O=C(/C=C/c1cccs1)c1ccsc1 = false
• Nc1ccc(-c2cc(C(=O)Nc3nccs3)[nH]c(=S)n2)cc1 = false
• CC1=C(C(=O)CC(=O)C(=O)Nc2ccccc2)Sc2ccccc2N1 = false
• O=C1OC[C@@H]2[C@@H](O)CCCCCN12 = false
• CCOc1ccccc1N=Nc1ccc2oc(=O)c(C(=O)Nc3cccc(C)c3)cc2c1 = false
• Cc1cc(C#N)c(Nc2c(C)cccc2[N+](=O)[O-])s1 = false
• COc1cc(O)c2c(c1)cc(O)c1c(=O)cc(C)oc12 = false
• NC1CSc2ccccc2NC1=O (centres undefined) = false
• COC(=O)C12C3C4C1C1C2C3C41C(=O)NC(C)(C)CC(=O)O (centres undefined) = false
• COc1ccc(N2C(=O)/C(=C\c3cc(OC)c(OC)c(OC)c3)SC2c2ccccc2)cc1 (centres undefined) = false
• CN(N=O)C(=O)N(N)CCCCC(NC(=O)OCc1ccccc1)C(=O)OCc1ccccc1 (centres undefined) = false
• Cc1cc(C)nc(NS(=O)(=O)c2ccc(NC(=O)c3cccc4c(Nc5ccc(S(=O)(=O)Nc6nc(C)cc(C)n6)cc5)c5ccccc5nc34)cc2)n1 = false
• Oc1ccccc1C=Nc1ccc(Oc2ccc(Cl)cc2)c(Cl)c1 = false
• CCOC(=O)c1cnc2c(ccc3ncccc32)c1OCC = false
• COc1cc(C2c3c(oc4ccccc4c3=O)Oc3oc4ccccc4c(=O)c32)cc(OC)c1O = false
• Cc1cc2c(=O)c(C)n[nH]c2c(C#N)c1C = false
• C=CCC(C(=N)C(C#N)(CC=C)C1=CCCCC1)C1=CCCCC1 (centres undefined) = false
• Brc1ccc(-c2cc(-c3ccc4c(c3)OCO4)c(-c3cccs3)n2Cc2ccccc2)cc1 = false
• Cc1c2ccncc2cc2c1sc1ccncc12 = false
• N#Cc1ccsc1C#N = false
• CCO[C@@H]1OC(=O)[C@H]2C(c3ccc(Cl)cc3)=NO[C@@H]12 = false
• Cc1cc(C)c(N)c(CO)c1 = false
• CCN1C(=O)C(N=[N+]=[N-])(c2ccccc2)C(=O)c2ccccc21 (centres undefined) = false
• N#Cc1c(=O)c2cccnc2n2c1[nH]c1ccccc12 = false
• COC(=O)C1C(OC(=O)C(Cl)(c2ccccc2)c2ccccc2)CC2CCC1N2C (centres undefined) = false

Where these numbers come from: PubChem BioAssay AID179
